Structures can show the parent of a compound that is named as a salt.
The following are reported pIC50 results, target or system human PIM2 (Homo sapiens (Human)).
Remember the convention: pIC50 equals -log10 of concentration in molar.

Record excerpt, results attached:
> print(dat)
                                   molecule  recorded.endpoint  numeric.readout
1  CC(=O)c1ccc(-c2c(-c3cccc(OC(F)(F)F)c3)cc3n2[C@@H](CCN)CNC3=O)cc1 [Compound 95, hydrochloride]              pIC50             7.77
2  NCCC[C@H]1CNC(=O)c2cc(-c3cccc(OC(F)(F)F)c3)c(-c3ccc(CO)cc3)n21 [Compound 105, hydrochloride]              pIC50             6.96

Next up:
Form field pIC50, entry NCC[C@H]1CNC(=O)c2cc(-c3cccc(OC(F)(F)F)c3)c(-c3cccc(F)c3)n21 [Compound 121, hydrochloride] : 7.92

---

# target.or.test.system: UniProt Q9P1W9
Where a name gives a salt, the structure may show the parent alone.
We begin with a simple list: items and their reported IC50.
Answer with a number only, understood to be in µM.

Please review the entries below; each comes with its answer.
> print(dat)
                                   molecule  unit.symbol  numeric.readout
1  CN(C)CCNC(=O)c1ccc(-c2c(-c3cccc(OC(F)(F)F)c3)cc3n2C(CCO)CNC3=O)cc1 (stereo not shown) [Compound 78, trifluoroacetate]           µM             0.09
2  COc1ccc(-c2c(-c3cccc(OC(F)(F)F)c3)cc3n2[C@@H](CCN)CNC3=O)cc1F [Compound 113, hydrochloride]           µM            0.036
3  Cc1cccc(-c2c(-c3ccnc(Cl)c3)cc3n2C(CCN)CNC3=O)c1 (stereo not shown) [Compound 45, hydrochloride]           µM            0.102
4  CC(=O)c1ccc(-c2c(-c3cccc(OC(F)(F)F)c3)cc3n2[C@@H](CCCN)CNC3=O)cc1 [Compound 110, hydrochloride]           µM            0.129
5  NCCC[C@H]1CNC(=O)c2cc(-c3cccc(OC(F)(F)F)c3)c(-c3ccsc3)n21 [Compound 103, hydrochloride]           µM            0.153

I looked up NCCC1CNC(=O)c2cc(-c3cccc(Cl)c3)c(-c3ccccc3)n21 (stereo not shown) [Compound 17, trifluoroacetate] and its IC50 for UniProt Q9P1W9 was 0.117

The reported UniProt Q9P1W9 IC50 of NCC[C@H]1CNC(=O)c2cc(-c3cccc(OC(F)(F)F)c3)c(-c3ccc(S(N)(=O)=O)cc3)n21 [Compound 120, hydrochloride] is 0.003

---

# target.or.test.system: human PIM1 (Homo sapiens (Human), UniProt P11309)
# Sequence (P11309 whole entry): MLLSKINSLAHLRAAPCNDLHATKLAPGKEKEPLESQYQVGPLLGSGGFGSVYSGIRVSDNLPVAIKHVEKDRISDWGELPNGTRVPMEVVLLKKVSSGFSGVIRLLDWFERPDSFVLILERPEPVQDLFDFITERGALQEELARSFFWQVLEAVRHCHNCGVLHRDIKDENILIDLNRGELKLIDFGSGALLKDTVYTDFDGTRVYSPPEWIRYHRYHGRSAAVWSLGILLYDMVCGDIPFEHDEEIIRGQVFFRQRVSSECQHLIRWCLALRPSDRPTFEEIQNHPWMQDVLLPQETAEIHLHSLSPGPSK
Where a name gives a salt, the structure may show the parent alone.
The following molecules are shown together with reported pIC50 values.
Worth noting: pIC50 values are minus log10 of concentrations stated in mol/L.

For orientation, consider the following solved cases.
> print(dat)
                                   molecule  numeric.readout
1  CN(C)Cc1ccc(-c2c(-c3cccc(OC(F)(F)F)c3)cc3n2[C@@H](CCCN)CNC3=O)cc1 [Compound 134, dihydrochloride]             8.70
2  NCC[C@H]1CNC(=O)c2cc(-c3cccc(OC(F)(F)F)c3)c(-c3cccc(Cl)c3)n21 [Compound 126, hydrochloride]             7.89
3  CN(C)C(=O)c1ccc(-c2c(-c3cccc(OC(F)(F)F)c3)cc3n2C(CCO)CNC3=O)cc1 (stereo not drawn) [Compound 79]             7.89
4  Cc1cccc(-c2c(-c3ccnc(Cl)c3)cc3n2C(CCN)CNC3=O)c1 (stereo not drawn) [Compound 45, hydrochloride]             7.39
5  NCCC1CNC(=O)c2cc(-c3cccc(Cl)c3)c(-c3ccccc3)n21 (stereo not drawn) [Compound 17, trifluoroacetate]             7.47
6  CS(=O)(=O)c1ccc(-c2c(-c3cccc(OC(F)(F)F)c3)cc3n2[C@@H](CCN)CNC3=O)cc1 [Compound 96, hydrochloride]             9.00

The molecule O=C1NCC(CCO)n2c1cc(-c1cccc(OC(F)(F)F)c1)c2-c1ccc(CO)cc1 (stereo not drawn) [Compound 84] showed pIC50 equal to 7.96

---

# target.or.test.system: UniProt Q9P1W9
Counter-ions that a name gives are not always drawn.
recorded.endpoint: pIC50
In simple prose, pIC50 is minus the logarithm base ten of a concentration in moles per litre.

Please review the entries below; each comes with its answer.
compound	target.or.test.system	pIC50
NCC[C@H]1CNC(=O)c2cc(-c3cccc(OC(F)(F)F)c3)c(-c3ccc(O)cc3)n21 [Compound 93, hydrochloride]	UniProt Q9P1W9	7.80
NCCC[C@H]1CNC(=O)c2cc(-c3cccc(OC(F)(F)F)c3)c(-c3ccc(O)cc3)n21 [Compound 104, hydrochloride]	UniProt Q9P1W9	7.32
Cc1cccc(-c2c(-c3cccc(OC(F)(F)F)c3)cc3n2[C@@H](CCN)CNC3=O)c1 [Compound 92, hydrochloride]	UniProt Q9P1W9	7.82

Value of measured pIC50 for the entry NCCC1CNC(=O)c2cc(-c3cc(Cl)ccc3F)c(-c3ccsc3)n21 (stereo not drawn) [Compound 55, hydrochloride] : 7.11

---

# target.or.test.system: human PIM1 (Homo sapiens (Human))
Structures can show the parent of a compound that is named as a salt.
recorded.endpoint: pIC50
pIC50 field: float, defined as -log10 of concentration (mol/L).

Worked set:
> print(dat)
                                   compound  recorded.endpoint  numeric.readout
1  NCC[C@H]1CNC(=O)c2cc(-c3cccc(OC(F)(F)F)c3)c(-c3ccc(S(N)(=O)=O)cc3)n21 [Compound 120, hydrochloride]              pIC50             9.00
2  CN1CCN(Cc2ccc(-c3c(-c4cccc(OC(F)(F)F)c4)cc4n3C(CCO)CNC4=O)cc2)CC1 (stereo not drawn) [Compound 82, trifluoroacetate]              pIC50             9.00
3  NCC[C@H]1CNC(=O)c2cc(-c3cccc(OC(F)(F)F)c3)c(-c3ccc(F)cc3)n21 [Compound 94, hydrochloride]              pIC50             7.70
4  NCCC1CNC(=O)c2cc(-c3cccc(C(F)(F)F)c3)c(-c3ccsc3)n21 (stereo not drawn) [Compound 40, hydrochloride]              pIC50             7.37
5  NCC[C@H]1CNC(=O)c2cc(-c3cccc(OC(F)(F)F)c3)c(-c3ccc(O)cc3)n21 [Compound 93, hydrochloride]              pIC50             9.00

Below: the item to evaluate.
Bench note, human PIM1 (Homo sapiens (Human)): Cc1cccc(-c2c(-c3cc(Cl)ccc3F)cc3n2C(CCN)CNC3=O)c1 (stereo not drawn) [Compound 59, hydrochloride] , pIC50 reads 7.40

---

# target.or.test.system: human PIM1 (Homo sapiens (Human), UniProt P11309)
# procedure.text: Biochemical assay for inhibitors of PIM1 kinase activity (trans-phosphorylation, Dowex technique)
# condition.label: ATP 200 μM, Aktide 25 μM, enzyme 1 nM; read-out: PIM-1 IC50
Structures can show the parent of a compound that is named as a salt.
recorded.endpoint: pIC50
FYI, pIC50 means -log10 of a concentration in mol per litre.

Some molecules with known pIC50 results, for comparison:
> print(dat)
                                   molecule  numeric.readout
1  NCCC1CNC(=O)c2cc(-c3cccc(OC(F)(F)F)c3)c(-c3ccccc3)n21 (centres unmarked) [Compound 28, hydrochloride]             8.15
2  CC(C)[C@H]1CNC(=O)c2cc(-c3cccc(OC(F)(F)F)c3)c(-c3ccc(CN)cc3)n21             7.92
3  CC(=O)c1ccc(-c2c(-c3cccc(OC(F)(F)F)c3)cc3n2[C@@H](CCN)CNC3=O)cc1 [Compound 95, hydrochloride]             8.22
4  CSc1ccc(-c2c(-c3cccc(OC(F)(F)F)c3)cc3n2[C@@H](CCN)CNC3=O)cc1 [Compound 123, hydrochloride]             7.80
5  NCCC[C@H]1CNC(=O)c2cc(-c3cccc(OC(F)(F)F)c3)c(-c3ccc(O)cc3)n21 [Compound 104, hydrochloride]             8.40

Documented pIC50 of NCC[C@H]1CNC(=O)c2cc(-c3cccc(OC(F)(F)F)c3)c(-c3ccc4c(c3)OCO4)n21 [Compound 112, hydrochloride] : 8.22

Short answer for NCC[C@H]1CNC(=O)c2cc(-c3cccc(OC(F)(F)F)c3)c(-c3ccccc3)n21 : pIC50 was 8.05

The measured pIC50 associated with NCCC1CNC(=O)c2cc(-c3cccc(C(F)(F)F)c3)c(-c3ccc(O)cc3)n21 (centres unmarked) [Compound 43, hydrochloride] reads 7.92
